The reported measurements were obtained from patent US9504725B2.

MEASUREMENT TARGET: porcine pancreatic lipase (Sus scrofa, UniProt P00591)
Sequence (P00591 1-450): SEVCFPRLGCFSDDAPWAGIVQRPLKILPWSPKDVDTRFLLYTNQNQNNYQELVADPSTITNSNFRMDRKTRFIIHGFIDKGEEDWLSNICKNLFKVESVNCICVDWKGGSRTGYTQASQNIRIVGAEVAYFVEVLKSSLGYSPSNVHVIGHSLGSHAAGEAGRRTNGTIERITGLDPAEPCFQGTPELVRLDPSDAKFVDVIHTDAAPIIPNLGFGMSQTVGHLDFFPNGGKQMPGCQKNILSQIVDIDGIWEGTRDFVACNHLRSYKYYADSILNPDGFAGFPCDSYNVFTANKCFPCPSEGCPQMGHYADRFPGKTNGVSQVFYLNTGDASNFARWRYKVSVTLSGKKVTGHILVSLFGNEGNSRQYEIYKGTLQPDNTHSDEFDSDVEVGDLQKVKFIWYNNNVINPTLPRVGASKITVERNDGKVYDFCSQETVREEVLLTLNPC
ENDPOINT NAME: IC50

Prompt line: Would you mind telling me what IC50 value was observed for Oc1ccc(/C=C/c2cc(O)cc(O)c2)cc1 [Resveratrol, trans-resveratrol] ?
Response line: 543 µM
